Cited source for all entries: the nanobody polyreactivity screen of Harvey et al. (2022)

- Test protocol: yeast display, Sf9 membrane polyspecificity reagent, FACS + sequencing; frameworks hold sequencing errors
Experimental endpoint: polyreactivity (PSR sort gate)

Consider the worked cases shown below.
QVQLVESGGGLVQAGGSLRLSCAASGIIFYPYAMGWYRQAPGKESELVADITSGGGTNYAYSVKGRITISRDNAKNTVYLQMNSLKQEDTAVYYCAAEVRGYHWGTYYEFYYWGQGTQVTVSS :: low polyreactivity
QVQLVESAGALVQAGGSLRLSCAASGRIFSVYAMGWYRQAPGKERELVATITYNGGSTYYADSVKGRFTISRDNAKNTVYLQMNSLKPEDTAVYYCAADWTYVRFDYWGQGTQVTVSS :: low polyreactivity
QVQLVESGGGLVQAGGSLRLSCAASGSIFIHNAMGWYRQAPGKERELVPGITTGGSTYYADSVKGRFTISRDNAKNTVYLQMNSLKPEDTAVYYCATARSYLTYSYHYDYWGQGTQVTVSS :: low polyreactivity
QVQLVESGGGLVQAGGSLRLSCAASGRIFRLYAMGWYRQAPGKEREFVATITWIGGRTYYADSVTGRFTISRDNAKNTVYLQMNSLKPEDTAVYYCAADPGYTYEYWGQGTQVTVSS :: low polyreactivity
QVQLVESGGGLVQAGGSLRLSSAASGRTFRPNAMGGYRQAPGKERELVAGITRGGSTKYADSVKGRFTISRDNSKNTVYLQMNSLKPEDTAVYYCAVERGSYSYDRPFYYCGQGTQVTVSS :: high polyreactivity
QVQLVESGGGLVQAGGSLSLSCAASGSTLRQYAMGWYRQAPGKERELVAGISYRGGRTYYADSVKVRFTISRDNAKNTVYLQMNSLKPEDTAVYYCNALRHYGDISVDCDDYWGQGTQVTVSS :: high polyreactivity

# input # query: polyreactivity (PSR sort gate) of entry QVQLVESGGGLVQAGGSLRLSFAASGRTFYINDMGWYRQAPGKERELVAAITWRGGSTYYADSVKGRFTISRDNAMNTVYLQMNSLKPEDTAVYYCAAYISLYWWYDYWGQGTQVTVSS
# output low polyreactivity

# input # query: polyreactivity (PSR sort gate) of entry QVQLEESGGGLVQAGGSLRLSCAASGRIFVIYAMGWYRQAPGKERELVAVITSGGRTYYADSVNGRFTISRDNAKNTVYLQMNRLKPEDTAVYYCAARTGRGFEYWGQGTQVTVSS
# output high polyreactivity

# input # query: polyreactivity (PSR sort gate) of entry QVQLVESGGGLVQAGGSLRLSCAASGRTFSRNAMGWYRQAPGKERELVAAITSRGGTTYYADSVKGRFTISRDNAKNTVYLQMNSLKPEDTAVYYCNAAPRARSKVSYDYWGQGTQVTVSS
# output high polyreactivity

# input # query: polyreactivity (PSR sort gate) of entry QVQLVESGGGLVQAGGSLRLSCAASGSTFAGNGMGWYRQAPGKERELVAGIDVTGGSTYYADSVKGRFTISRDNAKNTVYLQMNSLKPEDTAVYYCNARYVYHSSFAGFDYWGQGTQVTVSS
# output low polyreactivity

# input # query: polyreactivity (PSR sort gate) of entry QEQLQESGGGLVQAGGSLRLSCAASGNITLDTAMGWSRQAPRKEREFVASINDGGITNYADSVKGRFTICRDNAKNSVYLQMNSLKPEDTAVFYCAARWIWRGYDYWGQGTQVTVSS
# output high polyreactivity
